B1: INTS3 (parent)
chain: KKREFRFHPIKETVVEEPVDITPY

# Variants of: B1
# Test description: protein stability index of a GFP-peptide fusion (GPS, HEK-293T) (PSI 1-6); higher = more stable;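 also: lentivirally expressed fusions sorted by FACS into six bins by GFP to DsRed ratio, PSI derived from sequencing read proportions per bin multiplied by bin number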
# Assay context: c terminus: a fixed tail appended
Value type: protein stability index
Please give only the number in your answer, with no unit.

Query "V19T" yields protein stability index of 1.88

Query "T13S" yields protein stability index of 1.55

Query "D20A" yields protein stability index of 1.26

Query "R6D" yields protein stability index of 4.24

Query "F7W" yields protein stability index of 3.25

Query "T13M" yields protein stability index of 1.57

Query "P23G" yields protein stability index of 3.45

Query "E12W" yields protein stability index of 2.98

Query "V14W" yields protein stability index of 1.91

Query "P23K" yields protein stability index of 1.99

Query "P23F" yields protein stability index of 1.67

Query "V15N" yields protein stability index of 1.75

Query "D20W" yields protein stability index of 1.6

Query "E12Q" yields protein stability index of 2.48

Query "E4T" yields protein stability index of 2.07

Query "K2S" yields protein stability index of 2.38

Query "F5H" yields protein stability index of 4.36

Query "T13H" yields protein stability index of 2.06

Query "H8N" yields protein stability index of 3.96

Query "T22V" yields protein stability index of 1.58

Query "I10N" yields protein stability index of 2.84

Query "E4I" yields protein stability index of 2.05
